Measurement target: LATS1 (Homo sapiens)
Sequence (O95835 whole entry): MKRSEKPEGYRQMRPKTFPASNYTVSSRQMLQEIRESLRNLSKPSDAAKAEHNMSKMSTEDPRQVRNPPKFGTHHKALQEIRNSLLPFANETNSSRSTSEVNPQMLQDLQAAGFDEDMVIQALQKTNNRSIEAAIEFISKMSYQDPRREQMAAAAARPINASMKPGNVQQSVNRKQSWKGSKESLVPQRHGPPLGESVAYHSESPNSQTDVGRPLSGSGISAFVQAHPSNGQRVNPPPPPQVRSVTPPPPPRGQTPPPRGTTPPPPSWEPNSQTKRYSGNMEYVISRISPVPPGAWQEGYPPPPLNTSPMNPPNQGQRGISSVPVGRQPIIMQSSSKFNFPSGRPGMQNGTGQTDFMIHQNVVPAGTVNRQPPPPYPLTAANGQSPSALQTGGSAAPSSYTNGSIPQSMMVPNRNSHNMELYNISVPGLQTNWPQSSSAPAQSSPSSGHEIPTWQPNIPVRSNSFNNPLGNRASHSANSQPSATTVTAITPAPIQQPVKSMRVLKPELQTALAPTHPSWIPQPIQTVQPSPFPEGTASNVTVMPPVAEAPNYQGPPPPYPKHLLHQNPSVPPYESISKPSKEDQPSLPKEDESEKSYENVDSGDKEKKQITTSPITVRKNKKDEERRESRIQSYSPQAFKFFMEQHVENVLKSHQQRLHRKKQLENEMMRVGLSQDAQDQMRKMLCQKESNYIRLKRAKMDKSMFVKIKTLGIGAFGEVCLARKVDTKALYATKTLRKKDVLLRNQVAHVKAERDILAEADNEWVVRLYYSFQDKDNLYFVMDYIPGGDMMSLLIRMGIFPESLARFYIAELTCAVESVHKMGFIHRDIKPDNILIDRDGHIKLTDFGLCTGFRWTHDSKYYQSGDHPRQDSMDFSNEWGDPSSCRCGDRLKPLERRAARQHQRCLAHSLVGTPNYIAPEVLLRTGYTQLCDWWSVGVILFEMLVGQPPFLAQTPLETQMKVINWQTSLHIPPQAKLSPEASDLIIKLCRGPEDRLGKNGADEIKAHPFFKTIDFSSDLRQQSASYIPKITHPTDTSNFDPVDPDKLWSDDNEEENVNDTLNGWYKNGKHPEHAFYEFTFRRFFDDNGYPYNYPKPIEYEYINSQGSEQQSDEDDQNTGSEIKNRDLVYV
Assay text: RBC HotSpot kinase assay (33P-ATP, P81 filter-binding), LATS1
Type: biochemical
Measurement context: Table 28, biochemical kinase assay; read-out: LATS1 IC50
Quantity: IC50 (nM)
Kindly provide the numeric value in nM only, without the unit symbol.

As a guide, the following entries are already answered.
c1cc(-c2ccc(C3CCNCC3)nc2)c2cc[nH]c2n1 ... 63
COC(=O)c1c[nH]c2nccc(-c3ccc(C4(O)CNC4)c(Cl)c3)c12 ... 18.2
C[C@@H]1CN(C(=O)[C@@H]2COCCN2)C[C@H](C)C1(O)c1c(F)cc(-c2ccnc3[nH]cc(F)c23)cc1F (stereo partly shown) ... 24.1

Attention now shifts to the item below.
For the compound `CC(=O)N1C[C@@H](C)[C@](O)(c2c(C)cc(-c3ccnc4[nH]cc(F)c34)cc2F)[C@@H](C)C1` , what IC50 is on record?
6.9
